# protocol.details: Acute toxicity (LD50, IV)
# protocol.conditions: mouse, in vivo, male ICR-strain mice, survivors at day-5, read-out: LD50 (50% lethal dose)
measurement.label: LD50 at 120 h (mg/kg)
The figure you give is taken to be in mg/kg; do not add the unit.

LD50 at 120 h for `C[C@@H]1[C@H](O)[C@@H](C)/C=C/C=C/C=C/C=C/C=C/C=C/C=C/[C@H](O[C@@H]2O[C@H](C)[C@@H](O)[C@H](N)[C@@H]2O)C[C@@H]2O[C@](O)(C[C@@H](O)C[C@@H](O)[C@H](O)CC[C@@H](O)C[C@@H](O)CC(=O)O[C@H]1C)C[C@H](O)[C@H]2C(=O)O` is 4.1
